Assign EC50 to each entry below.
System: NF-κB pathway, THP1-Dual™ cells
EXPERIMENT_DESCRIPTION: STING reporter assay in THP1-Dual cells, NF-κB pathway (SEAP, QUANTI-Blue)
Format: cell-based, human
CONDITION_SET: Homo sapiens, THP1-Dual, 20 h, THP1-Dual cells, 10% human plasma, 20 hours; SEAP; 100% activation = 100 μM cGAMP; read-out: NFkB (EC50 μM)
Numbers only, in µM.

The cases that follow already have their EC50 on record.
{"MOLECULE": "CCOc1ncncc1C(=O)NCc1cc2cc(Cl)cc(C(=O)O[C@H](C)C(F)(F)F)c2o1", "UNIT_TEXT": "µM", "EC50": 5.2}
{"MOLECULE": "COC(=O)c1cc(C)cc2cc(CNC(=O)c3c(N)nn4cccnc34)oc12", "UNIT_TEXT": "µM", "EC50": 6}
{"MOLECULE": "COC(=O)c1cc(Cl)cc2cc(CNC(=O)c3cncc(Br)n3)oc12", "UNIT_TEXT": "µM", "EC50": 46}

Count: 5. Required value per item: EC50.
1. COC(=O)c1cccc2cc(Cn3ccc4[nH]ncc4c3=O)oc12
2. Cc1cc(C(=O)O[C@H](C)C(F)(F)F)c2oc(C(C)NC(=O)c3cnn4cccnc34)cc2c1 (some centres unmarked)
3. C[C@H](NC(=O)c1cnn2cccnc12)c1oc2c(C(=O)OC3COC3)cc(Cl)cc2c1Cl
4. COC(=O)c1cc(Cl)cc2cc(Cn3cnc4ccncc4c3=O)oc12
5. CC(CC(F)(F)F)OC(=O)c1cc(Cl)cc2cc(CNC(=O)c3cnn4cccnc34)oc12 (single isomer, unassigned)

OUTPUT:
1: 95; 2: 3.4; 3: 3.3; 4: 4.1; 5: 3.5

###

Tested on: NF-κB pathway, THP1-Dual™ cells
EXPERIMENT_DESCRIPTION: STING reporter assay in THP1-Dual cells, NF-κB pathway (SEAP, QUANTI-Blue)
Assay type: cell-based, human
CONDITION_SET: Homo sapiens, THP1-Dual, 20 h, THP1-Dual cells, 10% human plasma, 20 hours; SEAP; 100% activation = 100 μM cGAMP; read-out: NFkB (EC50 μM)
ASSAY_READOUT: EC50 (µM)
One number for each entry, in µM.

The cases that follow already have their EC50 on record.
{"MOLECULE": "O=C(OCCCCO)c1cc(Cl)cc2cc(CNC(=O)c3cnn4cccnc34)oc12", "ASSAY_READOUT": "EC50", "RECORDED_RESULT": 0.62}
{"MOLECULE": "CCOC(=O)OCOC(=O)c1cc(Cl)cc2cc(CNC(=O)c3cnn4cccnc34)oc12", "ASSAY_READOUT": "EC50", "RECORDED_RESULT": 0.82}

Count: 4. Required value per item: EC50.
1. COC(=O)c1cc(Cl)cc2cc(CNC(=O)c3cncnc3OC)oc12
2. COC(=O)c1c(O)ccc2cc(CNC(=O)c3cnn4cccnc34)oc12
3. COC(=O)c1cc(Cl)cc2cc(CNC(=O)c3cnn4cccnc34)oc12
4. COC(=O)c1c(F)c(F)cc2cc(CNC(=O)c3cnn4cccnc34)oc12

OUTPUT:
1. 2.6
2. 1.1
3. 0.68
4. 1.6

###

Test system: NF-κB pathway, THP1-Dual™ cells
EXPERIMENT_DESCRIPTION: STING reporter assay in THP1-Dual cells, NF-κB pathway (SEAP, QUANTI-Blue)
Assay type: cell-based, human
CONDITION_SET: Homo sapiens, THP1-Dual, 20 h, THP1-Dual cells, 10% human plasma, 20 hours; SEAP; 100% activation = 100 μM cGAMP; read-out: NFkB (EC50 μM)
Excerpt: THP1-Dual™ cells were derived from the human THP-1 monocyte cell line by stable integration of two inducible reporter constructs. […] Both reporter proteins are readily measurable in the cell culture supernatant when using QUANTI-Blue™, a SEAP detection reagent, and QUANTI-Luc™, a luciferase detection reagent. […] Plates were read on the Envision (Perkin Elmer) at 620 nm wavelength (OD620). […]
# strict inequality: EC50 < 2 µM yields met, everything else yields not met

Examples from the recorded data:
{"MOLECULE": "COc1cc(C(=O)OCC(F)(F)F)c2oc(CNC(=O)c3cnn4cccnc34)cc2c1", "LABEL_CLASS": "not met"}
{"MOLECULE": "Cc1ccc(C(=O)OC(C)C(F)(F)F)c2oc(CNC(=O)c3cnn4cccnc34)cc12 (centres unmarked)", "LABEL_CLASS": "not met"}
{"MOLECULE": "COC[C@@H](C)OC(=O)c1cc(Cl)cc2cc(CNC(=O)c3cnn4cccnc34)oc12", "LABEL_CLASS": "not met"}

INPUT: State whether 2 µM exceeds EC50 recorded for Cc1ccc(C(=O)OCC(F)(F)F)c2oc(Cn3cnc4ccncc4c3=O)cc12 .
OUTPUT: not met

INPUT: Further, for COC(OC(=O)c1cc(F)cc2cc(CNC(=O)c3cnn4cccnc34)oc12)C(F)(F)F (single isomer, unassigned) ?
OUTPUT: not met

INPUT: Further, for COC(=O)c1cc(C)cc2c(Cl)c(CNC(=O)c3cncc4cccnc34)oc12 ?
OUTPUT: met

###

Tested on: NF-κB pathway, THP1-Dual™ cells
EXPERIMENT_DESCRIPTION: STING reporter assay in THP1-Dual cells, NF-κB pathway (SEAP, QUANTI-Blue)
Type: cell-based, human
CONDITION_SET: Homo sapiens, THP1-Dual, 20 h, THP1-Dual cells, 10% human plasma, 20 hours; SEAP; 100% activation = 100 μM cGAMP; read-out: NFkB (EC50 μM)
Assign EC50 to each entry below.
One number for each entry, in µM.

{"COMPOUND": "Cc1cc(C(=O)OCC(F)(F)F)c2oc(Cn3ccc4ccncc4c3=O)cc2c1", "STUDY_SYSTEM": "NF-κB pathway, THP1-Dual™ cells", "RECORDED_RESULT": 2.3}
{"COMPOUND": "O=C(OC(C(F)(F)F)C(F)(F)F)c1cc(F)cc2cc(CNC(=O)c3cnn4cccnc34)oc12", "STUDY_SYSTEM": "NF-κB pathway, THP1-Dual™ cells", "RECORDED_RESULT": 1.7}

Count: 8. Required value per item: EC50.
1. COC(=O)c1cc(C)cc2c(C(F)(F)F)c(CNC(=O)c3cnn4cccnc34)oc12
2. CCn1cncc(C(=O)NCc2cc3cc(Cl)cc(C(=O)OC)c3o2)c1=O
3. COC(=O)Cc1cccc2cc(CNC(=O)c3cnn4cccnc34)oc12
4. COC(=O)c1cc(F)cc2c(Cl)c(CNC(=O)c3cnn4cccnc34)oc12
5. O=C(OCC(F)(F)C(F)(F)CO)c1cc(Cl)cc2cc(CNC(=O)c3cnn4cccnc34)oc12
6. COC(=O)c1cc(C)cc2cc(CNC(=O)c3cncnc3OC)oc12
7. C[C@@H](OC(=O)c1c(F)c(F)cc2cc(CNC(=O)c3cnn4cccnc34)oc12)C(F)(F)F
8. COC(=O)c1cc(F)cc2cc([C@H](C)NC(=O)c3cnn4cccnc34)oc12

OUTPUT:
1: 5.9; 2: 33; 3: 49; 4: 0.27; 5: 1; 6: 2.1; 7: 6.3; 8: 1.5

Count: 4. Required value per item: EC50.
1. COC(=O)c1cc(C(F)(F)F)cc2cc(CNC(=O)c3cnn4cccnc34)oc12
2. Cc1cc(C(=O)O[C@@H](C)C(F)(F)F)c2oc(CNC(=O)c3cnn4cccnc34)c(Cl)c2c1
3. C[C@H](NC(=O)c1cnn2cccnc12)c1oc2c(C(=O)OCC(F)(F)F)cc(F)cc2c1Cl
4. COC(=O)c1cc(F)cc2cc(Cn3ccc4ncncc4c3=O)oc12

OUTPUT:
1.1
2.7
1.1
12

Count: 3. Required value per item: EC50.
1. COC(=O)c1cccc2cc(CN3CCc4ccncc4C3=O)oc12
2. CCSC(=O)c1cc(F)cc2cc(CNC(=O)c3cnn4cccnc34)oc12
3. Cc1cc(C(=O)OC(C)C(F)(F)F)c2oc(CNC(=O)c3cnn4cccnc34)cc2c1 (centres unmarked)

OUTPUT:
6.3
2.1
1.2

###

Test system: NF-κB pathway, THP1-Dual™ cells
EXPERIMENT_DESCRIPTION: STING reporter assay in THP1-Dual cells, NF-κB pathway (SEAP, QUANTI-Blue)
Format: cell-based, human
CONDITION_SET: Homo sapiens, THP1-Dual, 20 h, THP1-Dual cells, 10% human plasma, 20 hours; SEAP; 100% activation = 100 μM cGAMP; read-out: NFkB (EC50 μM)
EC50 class ranges: group A (below 4 µM), group B (4 µM to below 60 µM), group C (60 µM or more)

{"MOLECULE": "O=C(OCC(F)(F)F)c1c(F)ccc2cc(CNC(=O)c3cnn4cccnc34)oc12 [EXAMPLE 286]", "STUDY_SYSTEM": "NF-κB pathway, THP1-Dual™ cells", "LABEL_CLASS": "group A"}
{"MOLECULE": "COC(=O)c1cc(Cl)cc2cc(CNC(=O)c3[nH]nc4cccnc34)oc12 [Example 49]", "STUDY_SYSTEM": "NF-κB pathway, THP1-Dual™ cells", "LABEL_CLASS": "group C"}
{"MOLECULE": "Cc1cc(C(=O)O[C@H](C)C(F)(F)F)c2oc(CNC(=O)c3cnn4cccnc34)cc2c1 [EXAMPLE 271]", "STUDY_SYSTEM": "NF-κB pathway, THP1-Dual™ cells", "LABEL_CLASS": "group A"}
{"MOLECULE": "O=C(NCC(F)(F)F)c1cc(Cl)cc2cc(CNC(=O)c3cnn4cccnc34)oc12 [EXAMPLE 403]", "STUDY_SYSTEM": "NF-κB pathway, THP1-Dual™ cells", "LABEL_CLASS": "group C"}
{"MOLECULE": "COC(=O)c1cc(Cl)cc2cc(CN3CCc4ccncc4C3=O)oc12 [Example 77]", "STUDY_SYSTEM": "NF-κB pathway, THP1-Dual™ cells", "LABEL_CLASS": "group B"}
{"MOLECULE": "[2H]C([2H])([2H])OC(=O)c1cccc2cc(CN3CCc4ccncc4C3=O)oc12 [EXAMPLE 353]", "STUDY_SYSTEM": "NF-κB pathway, THP1-Dual™ cells", "LABEL_CLASS": "group B"}

Shift focus to the following entry.
INPUT: Could you tell me which band COC(=O)c1cccc2cc(CN3Cc4ccnc(F)c4C3=O)oc12 [EXAMPLE 4] belongs to?
OUTPUT: group B
